Test system: Hepatitis C virus isolate HC-J4
Method: Inhibition of HCV genotype 1b J4 N-terminal His-tagged NS5Bdelta21 polymerase expressed in Escherichia coli C41(DE3) assessed as amount of double-stranded RNA synthesis at 20 uM
Label scheme for inhibition: lower than 40% is Not satisfied, 40% and above is Satisfied.

Worked examples, 3 compounds total:
Query string: Record COc1cc(OC)c(/C=C2\Oc3cccc(O)c3C2=O)c(OC)c1 ; criterion: inhibition no lower than 40%. Met?
Result string: Satisfied

Query string: Is reported inhibition greater than or equal to 40% here: CC(C)(C)c1ccc(/C=C2\Oc3cccc(O)c3C2=O)cc1
Result string: Satisfied

Query string: Test whether the compound O=C1/C(=C/c2ccc(O)cc2O)Oc2cccc(O)c21 records inhibition of 40% or higher.
Result string: Satisfied

More entries:
Query string: Entry O=C1/C(=C/c2ccccc2)Oc2cccc(O)c21 : is its inhibition no less than 40%?
Result string: Satisfied

Query string: hey, is inhibition for this one >= 40%? CN1CCN(c2ccc(/C=C3\Oc4cccc(O)c4C3=O)cc2)CC1
Result string: Satisfied

Query string: Reported inhibition at or above 40%? O=C1/C(=C/c2ccc(O)cc2O)Oc2cc(O)cc(O)c21
Result string: Satisfied

Query string: Would you say CCCCc1ccc(/C=C2\Oc3cc(O)cc(O)c3C2=O)cc1 shows inhibition at minimum 40%?
Result string: Satisfied

Query string: Does CC(C)c1ccc(/C=C2\Oc3cc(O)cc(O)c3C2=O)cc1 have a reported inhibition of at least 40%?
Result string: Satisfied

Query string: Confirm if inhibition reported for the compound O=C1/C(=C/c2ccc(F)cc2)Oc2cc(O)cc(O)c21 is 40% or above.
Result string: Satisfied

---

Test system: Hepatitis C virus isolate HC-J4
Method: Inhibition of HCV genotype 1b J4 N-terminal His-tagged NS5Bdelta21 polymerase expressed in Escherichia coli C41(DE3) assessed as amount of double-stranded RNA synthesis at 20 uM
Would you mind telling me the reported inhibition of each entry?
One number for each entry, in %.

Completed entries (count: 5):
Kindly note the recorded inhibition for COc1cc(OC)c2c(c1)O/C(=C\c1ccc(O)cc1)C2=O , which is 37

Looking up COc1cc(OC)c2c(c1)O/C(=C\c1ccc(C)cc1C)C2=O , I found its inhibition recorded as 14

Value of measured inhibition for the entry CCc1ccc(/C=C2\Oc3cc(O)cc(O)c3C2=O)cc1 : 79

inhibition for O=C1/C(=C/c2ccc(N3CCOCC3)cc2)Oc2cc(O)cc(O)c21 is 66

Noted for O=C1/C(=C/c2ccccc2)Oc2cc(O)cc(O)c21 : its inhibition reads 59

Below are 5 molecules. Give each one its inhibition.
1. CC(C)c1ccc(/C=C2\Oc3cccc(O)c3C2=O)cc1
2. O=C1/C(=C/c2ccccc2O)Oc2cccc(O)c21
3. O=C1/C(=C/c2ccc(O)c(O)c2)Oc2cc(O)cc(O)c21
4. O=C1/C(=C/c2ccccc2F)Oc2cccc(O)c21
5. O=C1/C(=C/c2ccc(C3CCCCC3)cc2)Oc2cc(OCc3ccccc3)cc(OCc3ccccc3)c21

Result string:
1: 29.9; 2: 56; 3: 85; 4: 58; 5: 3

---

Tested on: Hepatitis C virus isolate HC-J4
Method: Inhibition of HCV genotype 1b J4 N-terminal His-tagged NS5Bdelta21 polymerase expressed in Escherichia coli C41(DE3) assessed as amount of double-stranded RNA synthesis at 20 uM
Exercise: state measured inhibition for each of the compounds provided.
Numbers only, in %.

Form field inhibition, entry Cc1ccc(/C=C2\Oc3cccc(O)c3C2=O)c(C)c1 : 64

State the recorded inhibition for every item in the following list.
1. O=C1/C(=C/c2ccccc2O)Oc2cc(O)cc(O)c21
2. COc1ccc(/C=C2\Oc3cc(O)cc(O)c3C2=O)c(OC)c1OC
3. COc1cccc(/C=C2\Oc3cc(O)cc(O)c3C2=O)c1OC
4. O=C1/C(=C/c2ccc(O)cc2)Oc2cccc(O)c21

Result string:
33
50
74
60

Okay, here is my list. What is inhibition for each of these?
1. COc1ccc(/C=C2\Oc3cccc(O)c3C2=O)c(OC)c1
2. O=C1/C(=C/c2ccccc2O)Oc2cc(O)ccc21
3. O=C1/C(=C/c2ccc(C3CCCCC3)cc2)Oc2cc(O)cc(O)c21
4. O=C1/C(=C/c2ccc(O)cc2)Oc2cc(O)ccc21
5. COc1cccc(OC)c1/C=C1\Oc2cccc(O)c2C1=O
6. O=C1/C(=C/c2ccc(F)cc2F)Oc2cccc(F)c21
7. COc1cc(OC)c2c(c1)O/C(=C\c1ccc(C3CCCCC3)cc1)C2=O
8. O=C1/C(=C/c2ccc(O)cc2)Oc2cc(O)cc(O)c21

Result string:
[75, 18, 92, 35, 47, 10, 2, 61]
